- measuredTarget: WIV1 RBD (WIV1-CoV receptor binding domain, monomer) (WIV1-CoV)
- runDescription: BLI with recombinant Fabs, drawn table of KD (µM)

{"binder": "Ab20 Fab (Fab, V domains shown) VH: EVQLQQSGPELVKPGASVKISCKASGFSFTGYSMNWMKQSPEKSLEWIGEINPTTGGTTYNQKFKAKATLTVDKSSSTAYIQLKSLTSEDSAVYYCARGRADYWGQGTTLTVSS VL: DIVLTQSPASLAVSLGQRATISCRASESVEYYGTGLVQWFQQKPGQPPKLLIYAASNVESGVPARFSGSGSGTDFSLNIHSVEEDDIAMYFCHQSRKLPWTFGGGTKLEIK", "unitLabel": "nM", "relation": ">", "Kd": 100000}
{"binder": "Ab19 Fab (Fab, V domains shown) VH: QVQLQQSGAELARPGASVKLSCKASGYPFTSYGINWVKQRTGQGLEWIGEIYPRIGNTYYNEKFKGKATLTADKSSSTAYMEFRSLTSEDSAVYFCARSWNSNYGEYYFDYWGQGTTLTVS VL: DIVMTQSHKFMSTSIGDRVSITCKASHDVSTAVAWYQQKPGQSPKLLIYWASTRHTGVPDRFTGSGSGTDYTLTIRSVQAEDLALYYCQQHYSTPYTFGGGTKLEIK", "unitLabel": "nM", "relation": ">", "Kd": 100000}
{"binder": "Ab17 Fab (Fab, V domains shown) VH: EVQLQQSGPELVKPGASVKISCKASGYSFTDYYMNWVKQSPEKSLEWIGEINPNTGGTTYNQKFKAKATLTVDKSSSTAYMQLKSLTSEDSAVYYCARYYGNLYAMDYWGQGTSVTVSS VL: DILMTQSPSSMSVSLGDTVSITCHASQGISSNIGWLQQKPGKSFKGLIYHGTNLEDGVPSRFSGSGSGADYSLTISSLESEDFADYYCVQYVQFPYTLGGGTKLEIK", "unitLabel": "nM", "relation": "=", "Kd": 370}
{"binder": "Ab16 Fab (Fab, V domains shown) VH: EVQLQQSGPELVKPGASVKISCKASGYSFNNYYMNWVKQSPEKSLEWIGEINPNSGYTSYNQKFRAKATLTVDKSSTTAYMQLKSLTSEDSAVYYCARYFGNLFAMDFWGQGTSVTVS VL: DILMTQSPSSMSVSLGDTVSITCHASQGIGSNIGWLQQKPGKSFKGLIYLGTNLEDGVPSRFSGSGSGADYSLTISSLESEDFADYYCVQYVQFPYTFGGGTKLEIK", "unitLabel": "nM", "relation": "=", "Kd": 210}

// data source = patent US20250032605A1
